# tested-on: human SGLT1 (Homo sapiens, UniProt P13866)
# Construct: expressed in transfected cells
# Sequence (P13866 1-664): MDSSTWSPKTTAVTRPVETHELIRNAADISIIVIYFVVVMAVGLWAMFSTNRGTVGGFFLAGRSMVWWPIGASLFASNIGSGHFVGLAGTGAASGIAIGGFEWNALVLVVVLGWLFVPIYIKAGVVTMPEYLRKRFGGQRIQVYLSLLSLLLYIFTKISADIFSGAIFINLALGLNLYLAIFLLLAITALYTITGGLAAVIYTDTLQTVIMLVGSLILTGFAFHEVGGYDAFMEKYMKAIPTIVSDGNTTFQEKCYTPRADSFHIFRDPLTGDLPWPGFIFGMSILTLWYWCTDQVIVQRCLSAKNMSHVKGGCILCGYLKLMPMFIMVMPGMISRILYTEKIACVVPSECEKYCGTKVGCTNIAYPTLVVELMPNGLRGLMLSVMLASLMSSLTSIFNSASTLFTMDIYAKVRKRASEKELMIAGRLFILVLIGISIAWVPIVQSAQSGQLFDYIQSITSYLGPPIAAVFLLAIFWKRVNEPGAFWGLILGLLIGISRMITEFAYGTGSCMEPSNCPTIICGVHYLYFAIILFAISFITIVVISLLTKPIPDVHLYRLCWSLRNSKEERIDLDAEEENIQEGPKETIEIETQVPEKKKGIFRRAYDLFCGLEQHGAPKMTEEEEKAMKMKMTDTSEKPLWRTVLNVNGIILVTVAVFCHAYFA
# procedure-details: Sodium-dependent 14C-methyl-α-D-glucopyranoside uptake in CHO-K1 cells stably expressing human SGLT1
# Assay type: cell-based
# condition: compound at 0.1 μM
Measured inhibition at 0.1 µM by item
recorded-endpoint: inhibition at 0.1 µM (%)

{"compound": "Cc1cc(-c2ccc[nH]2)c([C@@H]2O[C@H](CO)C[C@H](O)[C@H]2O)cc1Cc1cc2ccccc2s1 [Cpd 26]", "readout-value": 33}
{"compound": "C=CCOc1c([C@@H]2O[C@H](CO)C[C@H](O)[C@H]2O)cc(Cc2cc3ccccc3s2)c(C)c1C [Cpd 24]", "readout-value": 31}
{"compound": "Cc1cc(Br)c([C@@H]2O[C@H](CO)C[C@H](O)[C@H]2O)cc1Cc1cc2ccccc2s1 [Cpd 25]", "readout-value": 26}
{"compound": "Cc1cc(O)c([C@@H]2O[C@H](CO)C[C@H](O)[C@H]2O)cc1Cc1cc2ccccc2o1 [Cpd 28]", "readout-value": 33}
{"compound": "COc1c([C@@H]2O[C@H](CO)C[C@H](O)[C@H]2O)cc(Cc2cc3ccccc3s2)c(C)c1C [Cpd 23]", "readout-value": 50}
{"compound": "COc1c(Cc2cc3ccccc3s2)cc([C@@H]2O[C@H](CO)C[C@H](O)[C@H]2O)c(O)c1F [Cpd 21]", "readout-value": 26}
{"compound": "Cc1c(Cc2cc3ccccc3s2)cc([C@@H]2O[C@H](CO)C[C@H](O)[C@H]2O)c(O)c1C [Cpd 22]", "readout-value": 39}
